experiment: 24-hour pharmacokinetics after the first oral dose of infigratinib 75 mg in patients with TIO; assay type: in vivo; conditions: human, blood, Subject 1, single oral dose 75 mg
readout: half-life (h)
Give just the number in h; leave the unit off.

INPUT: For CCN1CCN(c2ccc(Nc3cc(N(C)C(=O)Nc4c(Cl)c(OC)cc(OC)c4Cl)ncn3)cc2)CC1 , what is its reported half-life?
OUTPUT: 2.73

* * *

test: 24-hour pharmacokinetics after the first oral dose of infigratinib 75 mg in patients with TIO; format: in vivo; details: human, blood, Subject 1, single oral dose 75 mg
readout: Tmax (h)
Please give a number only; it is taken to be in h.

INPUT: Tmax lookup needed for CCN1CCN(c2ccc(Nc3cc(N(C)C(=O)Nc4c(Cl)c(OC)cc(OC)c4Cl)ncn3)cc2)CC1 , thanks.
OUTPUT: 2

All values here come from paper PMC9382865.
